This listing pairs binders with measured ELISA signal (called MFI).
# assayed-target: T1, Human ROR1-ECD-his (human, UniProt Q01973 30-406)
# T1 construct: extracellular domain; bought, Acrobiosystems RO1-H522y; also called hROR1-ECD-his; hROR1 ECD-his
# T1 sequence (Q01973 30-406): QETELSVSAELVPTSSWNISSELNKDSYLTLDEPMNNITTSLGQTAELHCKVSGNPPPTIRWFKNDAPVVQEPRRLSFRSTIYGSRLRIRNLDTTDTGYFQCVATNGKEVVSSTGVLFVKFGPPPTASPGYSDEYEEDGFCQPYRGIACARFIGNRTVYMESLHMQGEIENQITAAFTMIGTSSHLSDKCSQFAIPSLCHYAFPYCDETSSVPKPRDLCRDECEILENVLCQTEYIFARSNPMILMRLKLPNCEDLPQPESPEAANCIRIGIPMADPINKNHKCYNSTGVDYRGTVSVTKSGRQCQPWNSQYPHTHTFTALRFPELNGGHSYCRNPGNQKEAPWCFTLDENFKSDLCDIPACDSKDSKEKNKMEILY
# test-summary: ELISA, plate coated with hROR1 ECD-his
A bare number is all that is needed in reply.

| binder | ELISA signal (called MFI) |
| --- | --- |
| Positive control antibody (PR000374) (antibody, human IgG1, kappa, V domains shown) VH: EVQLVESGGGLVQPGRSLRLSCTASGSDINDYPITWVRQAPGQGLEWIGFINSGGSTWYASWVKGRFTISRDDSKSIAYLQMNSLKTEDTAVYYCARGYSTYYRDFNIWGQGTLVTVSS VL: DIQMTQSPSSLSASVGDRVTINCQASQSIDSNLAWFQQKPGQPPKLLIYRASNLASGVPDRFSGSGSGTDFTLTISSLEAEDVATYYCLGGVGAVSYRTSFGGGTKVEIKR | 2.48 |

Form field: reported ELISA signal (called MFI) of PR001369 (antibody, human IgG1, kappa, V domains shown, fully human IgG1, kappa; also called anti-ROR1 1015M3-H10 hIgG1; PR001369(WT)) VH: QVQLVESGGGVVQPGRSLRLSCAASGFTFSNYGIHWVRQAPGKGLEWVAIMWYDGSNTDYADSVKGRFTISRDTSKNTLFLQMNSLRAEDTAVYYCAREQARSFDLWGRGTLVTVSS VL: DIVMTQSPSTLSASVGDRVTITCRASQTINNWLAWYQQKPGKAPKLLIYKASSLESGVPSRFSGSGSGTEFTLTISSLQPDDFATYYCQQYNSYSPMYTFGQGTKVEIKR
2.48

Also need PR001365 (antibody, human IgG1, kappa, V domains shown, fully human IgG1, kappa) VH: QVQLVQSGGGVVQPGRSLRLSCAASGFTFSSYGMHWVRQAPGKGLEWVAVIWYDGSDKDYADSVKGRFTISRDTSKNTLYLQMNSLRAEDTAVYYCAREQARSFDLWGRGTLVTVSS VL: DIQMTQSPYSLSASVGDRVTITCRASQTINNWLAWYQQKPGKAPKLLIYKASSLESGVPSRFSGSGSGTEFTLTISSLQPDDFATYYCQQYKLYSPMYTFGQGTKVEIKR , thanks.
2.35
